The measurements presented in this section are drawn from ChEMBL document CHEMBL1129522.

Molecular target: Sterol O-acyltransferase 1 (Rattus norvegicus)
Sequence (O70536 whole entry): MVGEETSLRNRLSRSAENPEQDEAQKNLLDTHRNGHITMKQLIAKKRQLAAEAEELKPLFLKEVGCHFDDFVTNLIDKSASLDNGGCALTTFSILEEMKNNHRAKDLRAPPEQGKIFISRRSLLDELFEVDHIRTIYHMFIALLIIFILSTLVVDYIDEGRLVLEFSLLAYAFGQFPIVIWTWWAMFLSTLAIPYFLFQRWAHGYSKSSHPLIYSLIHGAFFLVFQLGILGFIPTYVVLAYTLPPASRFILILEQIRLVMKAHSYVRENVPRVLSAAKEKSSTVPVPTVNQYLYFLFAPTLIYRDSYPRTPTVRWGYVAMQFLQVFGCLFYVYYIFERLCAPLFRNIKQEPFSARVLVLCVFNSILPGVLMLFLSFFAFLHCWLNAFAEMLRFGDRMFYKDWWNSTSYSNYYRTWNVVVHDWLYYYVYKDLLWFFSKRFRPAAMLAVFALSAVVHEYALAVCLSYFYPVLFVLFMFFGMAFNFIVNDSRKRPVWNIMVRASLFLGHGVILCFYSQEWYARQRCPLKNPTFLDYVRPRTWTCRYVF
Hi! Just check whether IC50 is below 20 µM. Below gives class 1, equal or above gives class 0.

compound structure	assigned class
CCCCCCCCCCCCCCCCOS(=O)(=O)NC(=O)Oc1c(C(C)C)cccc1C(C)C	class 1
CC(C)c1cccc(C(C)C)c1OC(=O)NS(=O)(=O)N(C(C)C)C(C)C	class 1
CCCCN(C)S(=O)(=O)NC(=O)Nc1c(C(C)C)cccc1C(C)C	class 1
CC(C)c1cccc(C(C)C)c1OS(=O)(=O)NC(=O)Oc1c(C(C)(C)C)cc(CN(C)C)cc1C(C)(C)C	class 0
CC(C)c1cccc(C(C)C)c1NC(=O)NS(=O)(=O)N(c1ccccc1)c1ccccc1	class 1
CC(C)c1cccc(C(C)C)c1OC(=O)NS(=O)(=O)Nc1nc2ccccc2[nH]1	class 0
COC(=O)NS(=O)(=O)Nc1c(C(C)C)cccc1C(C)C	class 0
Cc1cc(C(C)(C)C)c(OC(=O)NS(=O)(=O)Nc2c(C(C)C)cccc2C(C)C)c(C(C)(C)C)c1	class 1
CC(C)c1cccc(C(C)C)c1OC(=O)NS(=O)(=O)NCC(c1ccccc1)c1ccccc1	class 0

====

Molecular target: Sterol O-acyltransferase 1 (Rattus norvegicus, UniProt O70536)
Sequence (O70536 whole entry): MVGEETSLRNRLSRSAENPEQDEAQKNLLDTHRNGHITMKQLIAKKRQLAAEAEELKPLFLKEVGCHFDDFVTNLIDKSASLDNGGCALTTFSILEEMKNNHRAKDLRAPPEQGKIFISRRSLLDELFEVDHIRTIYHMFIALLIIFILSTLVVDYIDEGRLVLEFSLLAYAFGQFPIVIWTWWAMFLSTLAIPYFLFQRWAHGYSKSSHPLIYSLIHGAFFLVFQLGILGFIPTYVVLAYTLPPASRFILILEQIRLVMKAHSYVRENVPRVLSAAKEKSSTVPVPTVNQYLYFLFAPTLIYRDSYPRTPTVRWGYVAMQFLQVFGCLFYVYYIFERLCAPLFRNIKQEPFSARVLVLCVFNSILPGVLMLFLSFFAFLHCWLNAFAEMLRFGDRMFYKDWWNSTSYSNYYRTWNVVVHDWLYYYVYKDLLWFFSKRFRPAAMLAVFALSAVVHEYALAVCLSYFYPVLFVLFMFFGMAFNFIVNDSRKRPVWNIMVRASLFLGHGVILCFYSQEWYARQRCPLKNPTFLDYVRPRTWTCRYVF
measurement kind: IC50

compound	result
CC(C)c1cccc(C(C)C)c1OS(=O)(=O)NC(=O)Sc1c(C(C)C)cccc1C(C)C	8.7 µM
Cc1cc(C(C)(C)C)c(OC(=O)NS(=O)(=O)NC(c2ccccc2)c2ccccc2)c(C(C)(C)C)c1	11.5 µM
CC(C)c1cccc(C(C)C)c1OC(=O)NS(=O)(=O)N1CCOCC1	> 100 µM
Cc1cc(C(C)(C)C)c(OC(=O)NS(=O)(=O)Oc2c(C(C)C)cccc2C(C)C)c(C(C)(C)C)c1	7.7 µM
COc1cccc(OC)c1OS(=O)(=O)NC(=O)Oc1c(C(C)C)cccc1C(C)C	> 50 µM
CCCCCN(CCCCC)S(=O)(=O)NC(=O)Oc1c(C(C)C)cccc1C(C)C	1.3 µM
CCCCCCCCN(CCCCCCCC)S(=O)(=O)NC(=O)Oc1c(C(C)C)cccc1C(C)C	58 µM
CC(C)c1cccc(C(C)C)c1OC(=O)NS(=O)(=O)N(Cc1ccccc1)Cc1ccccc1	20 µM
COc1cc(C(C)(C)C)c(OC(=O)NS(=O)(=O)Oc2c(C(C)C)cccc2C(C)C)c(C(C)(C)C)c1	4.8 µM
CC(C)c1cccc(C(C)C)c1NC(=O)NS(=O)(=O)N1CCC(c2ccccc2)CC1	10.4 µM
CC(C)c1cccc(C(C)C)c1OC(=O)NS(=O)(=O)Oc1c(F)cccc1F	38 µM
CC(C)c1cccc(C(C)C)c1NS(=O)(=O)NC(=O)Oc1c(C(C)(C)C)cccc1C(C)(C)C	16.8 µM
Cc1cccc(C)c1OC(=O)NS(=O)(=O)Oc1c(C(C)C)cccc1C(C)C	> 50 µM
CCCCCCOS(=O)(=O)NC(=O)Oc1c(C(C)(C)C)cc(C)cc1C(C)(C)C	95 µM
Cc1cccc(C(C)(C)C)c1OC(=O)NS(=O)(=O)Oc1c(C(C)C)cccc1C(C)C	49 µM
Cc1cc(C(C)(C)C)c(OC(=O)NS(=O)(=O)N(CC2CCCO2)CC2CCCO2)c(C(C)(C)C)c1 (stereo not drawn)	21 µM
CC(C)c1ccc(C(C)C)c(NC(=O)NS(=O)(=O)Oc2c(C(C)C)cccc2C(C)C)c1	8.7 µM
CCCCCCNS(=O)(=O)NC(=O)Oc1c(C(C)C)cccc1C(C)C	21 µM
CC(C)c1cccc(C(C)C)c1OC(=O)NS(=O)(=O)Oc1ccc(F)cc1F	> 50 µM
CCCCCCN(CCCCCC)S(=O)(=O)NC(=O)Oc1c(C(C)C)cccc1C(C)C	4.2 µM
CCCCCN(CCCCC)S(=O)(=O)NC(=O)Oc1c(C(C)(C)C)cc(C)cc1C(C)(C)C	2.2 µM
CC(C)c1cccc(C(C)C)c1OC(=O)NS(=O)(=O)N1CCc2ccccc21	43 µM
Cc1cc(C(C)(C)C)c(OC(=O)NS(=O)(=O)Nc2ccccc2)c(C(C)(C)C)c1	23.4 µM
CCCCCCCCCCCCOC(=O)NS(=O)(=O)Nc1c(OC)cc(OC)cc1OC	30 µM
CCCCCCCCN(CCCCCCCC)S(=O)(=O)NC(=O)Nc1c(C(C)C)cccc1C(C)C	1.9 µM
CC(C)NS(=O)(=O)NC(=O)Nc1c(C(C)C)cccc1C(C)C	18 µM
CC(C)c1cccc(C(C)C)c1NS(=O)(=O)NC(=O)Oc1c(C(C)C)cccc1C(C)C	25.8 µM
CCCCN(CCCC)S(=O)(=O)NC(=O)Oc1c(C(C)C)cccc1C(C)C	1.9 µM
CCCCCCCCN(C)S(=O)(=O)NC(=O)Oc1c(C(C)C)cccc1C(C)C	22 µM
CC(C)(C)c1cccc(C(C)(C)C)c1OC(=O)NS(=O)(=O)NC(c1ccccc1)c1ccccc1	11.4 µM
CC(C)c1cccc(C(C)C)c1OS(=O)(=O)NC(=O)Oc1c(-c2ccccc2)cccc1-c1ccccc1	12 µM
CCCCCCCCCCCCOS(=O)(=O)NC(=O)Sc1c(C(C)C)cccc1C(C)C	48 µM
CC(C)c1cccc(C(C)C)c1NC(=O)NS(=O)(=O)NCC(c1ccccc1)c1ccccc1	5.9 µM
CC(C)c1cccc(C(C)C)c1OC(=O)NS(=O)(=O)Nc1ccccc1	38.1 µM
CC(C)c1cccc(C(C)C)c1OS(=O)(=O)NC(=O)OC1[C@@H](C(C)C)CCC[C@H]1C(C)C (stereo partly drawn)	3.6 µM
CC(C)(C)c1cccc(C(C)(C)C)c1OC(=O)NS(=O)(=O)NCC(c1ccccc1)c1ccccc1	21.8 µM
CC(C)c1cccc(C(C)C)c1NS(=O)(=O)NC(=O)NC(c1ccccc1)c1ccccc1	30 µM
CN(C(=O)Oc1c(C(C)(C)C)cccc1C(C)(C)C)S(=O)(=O)NC(c1ccccc1)c1ccccc1	4.6 µM

====

test system: Rattus norvegicus; test: Acute in vivo activity measured by total plasma cholesterol concentration levels (TC) at 30 mg/kg dose; assay type: functional
measurement kind: Delta TC (%)

compound	assay system	measurement kind	quantitative readout
CC(C)c1cccc(C(C)C)c1OS(=O)(=O)NC(=O)Oc1c(F)c(F)c(F)c(F)c1F	Rattus norvegicus	Delta TC	-5
CC(C)c1cccc(C(C)C)c1OC(=O)NS(=O)(=O)Oc1c(C(C)C)cc(O)cc1C(C)C	Rattus norvegicus	Delta TC	-15
CC(C)c1cc(C(C)C)c(OC(=O)NS(=O)(=O)Oc2c(C(C)C)cccc2C(C)C)c(C(C)C)c1	Rattus norvegicus	Delta TC	-79
CC(C)c1cccc(C(C)C)c1OS(=O)(=O)NC(=O)OC1[C@@H](C(C)C)CCC[C@H]1C(C)C (stereo partly drawn)	Rattus norvegicus	Delta TC	-70
CC(=O)c1cc(C(C)C)c(OC(=O)NS(=O)(=O)Oc2c(C(C)C)cccc2C(C)C)c(C(C)C)c1	Rattus norvegicus	Delta TC	-16
CCCN(CCC)S(=O)(=O)NC(=O)Nc1c(C(C)C)cccc1C(C)C	Rattus norvegicus	Delta TC	-60
CCCCCCC(C)OS(=O)(=O)NC(=O)Nc1c(C(C)C)cccc1C(C)C (stereo not drawn)	Rattus norvegicus	Delta TC	-51
Cc1cccc(C)c1OS(=O)(=O)NC(=O)Oc1c(C(C)C)cccc1C(C)C	Rattus norvegicus	Delta TC	-58
CCCCCCCCCCCCOS(=O)(=O)[N-]C(=O)Nc1c(C(C)C)cccc1C(C)C.[Na+]	Rattus norvegicus	Delta TC	-60
CC(C)c1cccc(C(C)C)c1OC(=O)NS(=O)(=O)Oc1c(C(C)(C)C)cccc1C(C)(C)C	Rattus norvegicus	Delta TC	-55
CC(C)c1cccc(C(C)C)c1OS(=O)(=O)NC(=O)Oc1c(-c2ccccc2)cccc1-c1ccccc1	Rattus norvegicus	Delta TC	-46
CC(C)c1cccc(C(C)C)c1OS(=O)(=O)NC(=O)Oc1c(C(C)(C)C)cc(CN(C)C)cc1C(C)(C)C	Rattus norvegicus	Delta TC	2
COc1cc(C(C)(C)C)c(OC(=O)[N-]S(=O)(=O)Oc2c(C(C)C)cccc2C(C)C)c(C(C)(C)C)c1.[Na+]	Rattus norvegicus	Delta TC	-60
CC(C)c1cccc(C(C)C)c1OS(=O)(=O)NC(=O)Oc1ccc(F)cc1F	Rattus norvegicus	Delta TC	-5
COc1cccc(OC)c1OS(=O)(=O)NC(=O)Oc1c(C(C)C)cccc1C(C)C	Rattus norvegicus	Delta TC	-70
CC(C)c1cccc(C(C)C)c1OC(=O)NS(=O)(=O)Oc1c(C(C)C)cccc1C(C)C	Rattus norvegicus	Delta TC	-70
CC(C)c1cc(Cl)cc(C(C)C)c1OC(=O)NS(=O)(=O)Oc1c(C(C)C)cccc1C(C)C	Rattus norvegicus	Delta TC	2
CCCCCCOS(=O)(=O)NC(=O)Oc1c(C(C)(C)C)cc(C)cc1C(C)(C)C	Rattus norvegicus	Delta TC	-56
